The reader will find reported IC50 values listed item by item below.
test system: UniProt:P34707
Sequence (P34707 whole entry): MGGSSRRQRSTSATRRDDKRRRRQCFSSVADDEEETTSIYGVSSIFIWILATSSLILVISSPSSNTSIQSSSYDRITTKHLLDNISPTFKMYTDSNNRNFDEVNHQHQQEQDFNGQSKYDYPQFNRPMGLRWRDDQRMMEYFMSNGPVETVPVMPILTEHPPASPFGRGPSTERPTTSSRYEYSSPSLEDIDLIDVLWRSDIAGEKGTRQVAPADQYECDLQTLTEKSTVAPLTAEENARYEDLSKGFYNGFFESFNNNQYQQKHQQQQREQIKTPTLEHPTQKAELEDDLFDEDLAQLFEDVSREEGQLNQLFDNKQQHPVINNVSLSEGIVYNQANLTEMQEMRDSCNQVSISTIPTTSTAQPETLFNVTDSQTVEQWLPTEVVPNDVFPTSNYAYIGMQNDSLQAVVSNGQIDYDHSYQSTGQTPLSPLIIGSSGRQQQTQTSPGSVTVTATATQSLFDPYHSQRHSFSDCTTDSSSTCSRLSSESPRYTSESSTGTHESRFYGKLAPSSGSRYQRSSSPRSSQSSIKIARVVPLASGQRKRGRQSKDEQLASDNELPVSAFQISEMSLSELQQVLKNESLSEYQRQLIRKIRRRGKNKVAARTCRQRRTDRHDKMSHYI
Assay type: functional
Active and inactive are the calls of the source.

A selection of reference data follows.
O=C1/C(=C/c2cccs2)SC(=S)N1CC(=O)N1CCCCC1CCO (stereo not given)	> 100 µM (inactive)
CCCSc1ccc2nc(-c3ccccc3)cn2c1	> 100 µM (inactive)
CCOC(=O)C(C)On1c(-c2ccc(Cl)cc2)nc2ccc([N+](=O)[O-])cc21 (stereo not given)	> 100 µM (inactive)
CCOc1cc(C(N)=O)cc(Br)c1OC	> 100 µM (inactive)

Now consider the entry below.
Qu. Tell us which IC50 value is on record for O=C(Nc1ccccc1)Nc1csc2ccccc12
Ans. > 100 µM (inactive)

The reported numbers originate from ChEMBL document CHEMBL1201862.
